Tested on: morningglory (Ipomoea coccinea)
Experiment: Test C pre-/postemergence: morningglory
Format: in vivo
Conditions: Postemergence, 31 g ai/ha; scale 0 to 100 (0 no effect, 100 complete control)
The reader will find reported Plant response rating, Morningglory values listed item by item below.
# answer = number (no unit)

The examples below pair each entry with its known result.
Fc1ccc(-n2nc(Cc3ccnc(C(F)(F)F)c3)c(OCC(F)(F)F)n2)cc1 [Compound 142]	60
Cc1nn(-c2ccc(C(F)(F)F)cc2)nc1Cc1ccnc(C(F)(F)F)c1 [Compound 47]	75

Entry Cc1nn(-c2ccc(F)c(F)c2)nc1Oc1ccnc(C(F)(F)F)c1 [Compound 145] , morningglory (Ipomoea coccinea) data, Plant response rating, Morningglory value: 90

Entry Cc1nn(-c2ccc(F)cc2)nc1Cc1ccnc(C(F)(F)F)c1 [Compound 16] , morningglory (Ipomoea coccinea) data, Plant response rating, Morningglory value: 50

* * *

The reader will find reported Plant response rating, Ragweed values listed item by item below.
Tested on: ragweed (common ragweed, Ambrosia elation)
Assay: Test C pre-/postemergence: ragweed
Type: in vivo
Settings: Preemergence, 250 g ai/ha; scale 0 to 100, 0 no effect, 100 complete control
# answer = number (no unit)

The examples below pair each entry with its known result.
Cc1nn(-c2ccc(C(F)(F)F)cc2)nc1Cc1ccnc(C(F)(F)F)c1	80
Fc1ccc(-n2nc(Cc3ccnc(C(F)(F)F)c3)c(OCC(F)(F)F)n2)cc1	80
Cc1nn(-c2ccc(F)cc2)nc1Oc1ccnc(C(F)(F)F)c1	55
Cc1nn(-c2ccc(F)c(F)c2)nc1Oc1ccnc(C(F)(F)F)c1	55

Field: next compound
compound Cc1nn(-c2ccc(F)c(C(F)(F)F)c2)nc1Oc1ccnc(C(F)(F)F)c1 , Plant response rating, Ragweed observed: 80

* * *

Tested on: morningglory (Ipomoea coccinea)
Assay: Test C pre-/postemergence: morningglory
Assay type: in vivo
Conditions: Preemergence, 125 g ai/ha; scale 0 to 100, 0 no effect, 100 complete control
RECORDED METRIC: Plant response rating, Morningglory
# answer = number (no unit)

The examples below pair each entry with its known result.
Cc1nn(-c2ccc(F)c(F)c2)nc1Oc1ccnc(C(F)(F)F)c1	70
CCc1nn(-c2ccc(F)cc2)nc1Oc1ccnc(C(F)(F)F)c1	25
CCCc1nn(-c2ccc(F)cc2)nc1Cc1ccnc(C(F)(F)F)c1	50

Field: next compound
compound CCCc1nn(-c2ccc(C(F)(F)F)c(F)c2)nc1Oc1ccnc(C(F)(F)F)c1 , Plant response rating, Morningglory observed: 70

* * *

Tested on: sedge, umbrella (small-flower umbrella sedge, Cyperus difformis)
Experiment: Test C flooded paddy test: sedge, umbrella
Assay type: in vivo
Details: Flood (flooded paddy test), 125 g ai/ha; visual rating after 13 to 15 days, scale 0 to 100 (0 no effect, 100 complete control)
RECORDED METRIC: Plant response rating, Sedge, Umbrella

Entry Cc1nn(-c2ccccc2[N+](=O)[O-])nc1C(=O)c1cccc(C(F)(F)F)c1 , sedge, umbrella (small-flower umbrella sedge, Cyperus difformis) data, Plant response rating, Sedge, Umbrella value: 0

Entry Cc1nn(-c2ccc(C(F)(F)F)cc2)nc1Oc1cnn(CC(F)(F)F)c1 , sedge, umbrella (small-flower umbrella sedge, Cyperus difformis) data, Plant response rating, Sedge, Umbrella value: 0

Entry CCc1nn(-c2ccc(C(F)(F)F)cn2)nc1Cc1cccc(C(F)(F)F)c1 , sedge, umbrella (small-flower umbrella sedge, Cyperus difformis) data, Plant response rating, Sedge, Umbrella value: 75

Entry Cc1nn(-c2ccc(F)cc2)nc1Cc1ccnc(OCC(F)(F)F)c1 , sedge, umbrella (small-flower umbrella sedge, Cyperus difformis) data, Plant response rating, Sedge, Umbrella value: 0

Entry Cc1nn(-c2ccc(C(F)(F)F)nc2)nc1C(=O)c1cccc(C(F)(F)F)c1 , sedge, umbrella (small-flower umbrella sedge, Cyperus difformis) data, Plant response rating, Sedge, Umbrella value: 0

Entry COc1nn(-c2ccc(C(F)(F)F)cc2)nc1Cc1cccc(C(F)(F)F)c1 , sedge, umbrella (small-flower umbrella sedge, Cyperus difformis) data, Plant response rating, Sedge, Umbrella value: 70

Entry Cc1nn(-c2ccc(F)cc2)nc1Cn1cnc(C(F)(F)F)c1Cl , sedge, umbrella (small-flower umbrella sedge, Cyperus difformis) data, Plant response rating, Sedge, Umbrella value: 0

Entry Cc1nn(-c2ccc(C(F)(F)F)cc2)nc1Oc1ccccc1Cl , sedge, umbrella (small-flower umbrella sedge, Cyperus difformis) data, Plant response rating, Sedge, Umbrella value: 0

* * *

System: wheat (Triticum aestivum)
Experiment: Test A pre-/postemergence: wheat
Format: in vivo
Conditions: Postemergence, 500 g ai/ha; 0 to 100 scale, 0 is no effect, 100 is complete control
The reader will find reported Wheat plant response rating values listed item by item below.

The examples below pair each entry with its known result.
CCOc1nn(-c2ccc(Br)cc2)nc1Cc1ccnc(C(F)(F)F)c1 [Compound 189]	60
CCc1nn(-c2ccc(F)cc2F)nc1Oc1ccnc(C(F)(F)F)c1 [Compound 178]	40
COc1nn(-c2ccc(F)cc2F)nc1Cc1ccnc(C(F)(F)F)c1 [Compound 165]	30

Field: next molecule
molecule CCOc1nn(-c2ccc(F)cc2)nc1Cc1ccnc(C(F)F)c1 [Compound 195] , Wheat plant response rating observed: 30

* * *

The reader will find reported Plant response rating, Foxtail, Giant values listed item by item below.
Test system: foxtail, giant (giant foxtail, Setaria faberii)
Test: Test A pre-/postemergence: foxtail, giant
Type: in vivo
Details: Postemergence, 125 g ai/ha; 0 to 100 scale, 0 is no effect, 100 is complete control
# answer = number (no unit)

Entry CCCc1nn(-c2ccc(C(F)(F)F)c(F)c2)nc1Oc1ccnc(C(F)(F)F)c1 , foxtail, giant (giant foxtail, Setaria faberii) data, Plant response rating, Foxtail, Giant value: 90

Entry CCOc1nn(-c2ccc(F)cc2)nc1Cc1ccnc(C(F)F)c1 , foxtail, giant (giant foxtail, Setaria faberii) data, Plant response rating, Foxtail, Giant value: 90

Entry COc1nn(-c2ccc(F)cc2F)nc1Cc1ccnc(C(F)(F)F)c1 , foxtail, giant (giant foxtail, Setaria faberii) data, Plant response rating, Foxtail, Giant value: 60

Entry O=C(c1ccnc(C(F)(F)F)c1)c1nn(-c2ccc(F)cc2)nc1F , foxtail, giant (giant foxtail, Setaria faberii) data, Plant response rating, Foxtail, Giant value: 0

Entry CCOc1nn(-c2ccc(Br)cc2)nc1Cc1ccnc(C(F)(F)F)c1 , foxtail, giant (giant foxtail, Setaria faberii) data, Plant response rating, Foxtail, Giant value: 90

* * *

System: deadnettle (henbit deadnettle, Lamium amplexicaule)
Assay: Test C postemergence: deadnettle
Type: in vivo
Details: 62 g ai/ha, scale 0 to 100 (0 no effect, 100 complete control)
RECORDED METRIC: Plant response rating, Deadnettle

The examples below pair each entry with its known result.
Fc1ccc(-n2nc(Cc3ccnc(C(F)(F)F)c3)c(OCC(F)(F)F)n2)cc1	100
Cc1nn(-c2ccc(F)cc2)nc1Oc1ccnc(C(F)(F)F)c1	100
Cc1nn(-c2ccc(F)cc2)nc1Cc1ccnc(C(F)(F)F)c1	98

Field: next molecule
molecule Cc1nn(-c2ccc(C(F)(F)F)cc2)nc1Cc1cccc(C(F)(F)F)c1 , Plant response rating, Deadnettle observed: 98

* * *

System: corn (Zea mays)
Experiment: Test A pre-/postemergence: corn
Format: in vivo
Conditions: Preemergence, 500 g ai/ha; 0 to 100 scale, 0 is no effect, 100 is complete control
The reader will find reported Plant response rating, Corn values listed item by item below.
# answer = number (no unit)

compound Cc1nn(-c2ccc(F)cc2)nc1Oc1ccc(F)c(C(F)(F)F)c1 , Plant response rating, Corn observed: 10

compound Cc1nn(-c2cccc(Cl)c2)nc1C(=O)c1cccc(C(F)(F)F)c1 , Plant response rating, Corn observed: 0

compound Cc1nn(-c2ccc(C(F)(F)F)cc2)nc1Cn1ccc(C(F)(F)C(F)(F)F)n1 , Plant response rating, Corn observed: 10

compound Cc1nn(-c2ccc(F)cc2Cl)nc1Cc1ccnc(C(F)(F)F)c1 , Plant response rating, Corn observed: 10

compound Cc1nn(-c2ccc(C(F)(F)F)cc2)nc1Cc1cnn(CC(F)(F)F)c1 , Plant response rating, Corn observed: 0

* * *

Test system: ryegrass, Italian (Italian ryegrass, Lolium multiflorum)
Test: Test C pre-/postemergence: ryegrass, Italian
Format: in vivo
Conditions: Preemergence, 250 g ai/ha; scale 0 to 100, 0 no effect, 100 complete control
The reader will find reported Plant response rating, Ryegrass, Italian values listed item by item below.
# answer = number (no unit)

CCCc1nn(-c2ccc(F)cc2)nc1Cc1ccnc(C(F)(F)F)c1	90
Cc1nn(-c2ccc(F)cc2)nc1Cc1ccnc(C(F)(F)F)c1	100
Cc1nn(-c2ccc(C(F)(F)F)c(F)c2)nc1Cc1ccnc(C(F)(F)F)c1	95

Field: next compound
compound Cc1nn(-c2ccc(F)c(C(F)(F)F)c2)nc1Oc1ccnc(C(F)(F)F)c1 , Plant response rating, Ryegrass, Italian observed: 95
